// data source = the supplement of paper PMC11451515

System: P12-Ichikawa
Measurement notes: AUC of viability dose-response curve (% viability x log10 dose units); higher = less sensitive
Condition description: RPMI 5 mM glucose + 10% FBS; 48 h
Listing: AUC of viability dose-response curve of selected compounds
Measurement kind: AUC of viability dose-response curve

[
  {
    "Structure smiles string": "O=C/1NC(=O)C(=C1C2=CN=C3C=CC=C[N]23)/C4=C[N]5CCN(CC6=C5C4=CC=C6)C(=O)N7CCOCC7",
    "Measurement target": "P12-Ichikawa",
    "Test result": 301
  },
  {
    "Structure smiles string": "O=C(/C=C/c1ccc(CN(CCO)CCc2c[nH]c3ccccc23)cc1)NO",
    "Measurement target": "P12-Ichikawa",
    "Test result": 271
  },
  {
    "Structure smiles string": "CC[N+](CC)(CC)CCOc1cccc(OCC[N+](CC)(CC)CC)c1OCC[N+](CC)(CC)CC",
    "Measurement target": "P12-Ichikawa",
    "Test result": 455
  },
  {
    "Structure smiles string": "CN(C)Cc1c(C(=O)NCCOc2ccc(C(=O)NO)cc2)oc2ccccc12",
    "Measurement target": "P12-Ichikawa",
    "Test result": 345
  },
  {
    "Structure smiles string": "O=C(CC12CC3CC(CC(C3)C1)C2)Nc1cccc2nc(NCCNCCO)ccc12",
    "Measurement target": "P12-Ichikawa",
    "Test result": 410
  }
]

* * *

Test system: NOMO1
Measurement notes: cell viability relative to DMSO control; higher = less cytotoxic
Condition description: RPMI 5 mM glucose + 10% FBS; 48 h; 15.4 µM
cell viability values for the compounds below.

[
  {
    "Compound": "COc1cc([C@@H]2c3cc4c(cc3[C@H](O)[C@H]3COC(=O)[C@@H]23)OCO4)cc(OC)c1OC",
    "cell viability / %": 16.6
  },
  {
    "Compound": "O=C(Nc1nnc(-c2ccco2)o1)c1cc(-c2ccccc2)nc2ccccc12",
    "cell viability / %": 99.3
  },
  {
    "Compound": "CC(NC(C)(C)C)C(=O)c1cccc(Cl)c1 (stereo not drawn)",
    "cell viability / %": 128
  },
  {
    "Compound": "c1ccc2c(Cc3c[nH]c4ccccc34)c[nH]c2c1",
    "cell viability / %": 85.8
  },
  {
    "Compound": "C[C@H]1C[C@H]2[C@@H]3CC[C@](O)(C(=O)CO)[C@@]3(C)C[C@H](O)[C@@H]2[C@@]\\4(C)/C=C\\C(=O)\\C=C14",
    "cell viability / %": 88.4
  },
  {
    "Compound": "CC(=O)N[C@@H]1[C@@H](NC(N)=N)\\C=C(/O[C@H]1[C@H](O)[C@H](O)CO)C(O)=O",
    "cell viability / %": 121
  },
  {
    "Compound": "C[C@@H]1O[C@@H](O[C@H]2C[C@@H](O)[C@]3(CO)[C@H]4[C@H](O)C[C@]5(C)[C@@H](C6=CC(=O)OC6)CC[C@]5(O)[C@@H]4CC[C@]3(O)C2)[C@H](O)[C@H](O)[C@H]1O",
    "cell viability / %": 7.5
  },
  {
    "Compound": "CC[C@@H]1[C@@H](C)O[C@@](O)([C@@H](C)[C@H](O)[C@H](C)[C@H]2OC(=O)/C=C/C=C/[C@H](C)[C@@H]([C@@H](C)[C@@H](O)[C@H](C)[C@@]3(O)C[C@@H](O[C@H]4C[C@H](O)[C@H](O)[C@H](C)O4)[C@H](CC)[C@@H](C)O3)OC(=O)/C=C/C=C/[C@@H]2C)C[C@H]1O[C@H]1C[C@H](O)[C@H](O)[C@H](C)O1",
    "cell viability / %": 17.5
  }
]
